This listing pairs molecules with measured normalized growth.
- Test Method Notes: chemical genetic growth profiling, strain panel (AID 1159580);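 also: tested at 20 µM; growth read once vehicle control cultures reached saturation at 30 °C; 1 = growth at the plate median or of vehicle wells; lower values mean less growth of the strain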
- Measurement Conditions: S. cerevisiae deletion strains, growth OD, locus YMR205C, strain PFK2 (second series), stronger effect = lower value
About 2,000 (36%) of roughly 5,500 compounds were called active. Roughly 18% stayed inconclusive and do not appear here. The list shows a part of the results.

Recorded results for 2 molecules are shown here.
>  <Smiles Data>
Clc1ccc(N/N=C\c2sccc2Oc2ccccc2)cc1

>  <normalized growth>
0.47 (active)

$$$$
>  <Smiles Data>
CC(=O)c1ccccc1C(=O)c1ccc(C(C)(C)C)cc1

>  <normalized growth>
0.981 (inactive)

$$$$

API: the following record is the query input.
In: Please report the recorded normalized growth for O=C(Nc1cc2c(s1)-c1cc(Cl)ccc1SC2)Oc1ccccc1 .
Out: 0.966 (inactive)

----------
- Test Method Notes: chemical genetic growth profiling, strain panel (AID 1159580);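 also: tested at 20 µM; growth read once vehicle control cultures reached saturation at 30 °C; 1 = growth at the plate median or of vehicle wells; lower values mean less growth of the strain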
- Measurement Conditions: S. cerevisiae deletion strains, growth OD, locus YMR263W, strain SAP30, stronger effect = lower value
About 2,000 (36%) of roughly 5,500 compounds were called active. Inconclusive results (about 18%) are left out. The list shows a part of the results. Where a SMILES comes first, the peptide text is derived from it. [ ]: non-standard residue; d: D form. Orn = NCCC[CH](N)C(=O)O
Readout Label: normalized growth

>  <Compound>
COc1cc(/C=C2/SC(=S)NC2=O)cc(OC)c1OC

>  <Readout Label>
normalized growth

>  <Test Value>
0.901 (active)

$$$$
>  <Compound>
CC1(C)C(=O)[C@@H]2C[C@@]3(O)C4=CC(=O)O[C@@H](c5ccoc5)[C@]4(C)CCC3[C@@](C)(C2=O)[C@H]1CC(=O)O (some centres not stated)

>  <Readout Label>
normalized growth

>  <Test Value>
1.02 (inactive)

$$$$
>  <Compound>
Cc1cc(C)cc(N2C(=O)CC(Sc3ccccc3C(=O)O)C2=O)c1 (configuration not stated)

>  <Readout Label>
normalized growth

>  <Test Value>
0.928 (inactive)

$$$$
>  <Compound>
CC(=O)O[C@H]1CC[C@]2(C)C3CC[C@@]4(C)C(CC5O[C@@]6(CCC(C)CO6)[C@@H](C)C54)C3CC[C@H]2C1 (some centres not stated)

>  <Readout Label>
normalized growth

>  <Test Value>
0.991 (inactive)

$$$$
>  <Compound>
CCOc1ccc(NC(C)=O)cc1

>  <Readout Label>
normalized growth

>  <Test Value>
1.01 (inactive)

$$$$
>  <Compound>
Cc1ccc(N(CC2=NCCN2)c2cccc(O)c2)cc1

>  <Readout Label>
normalized growth

>  <Test Value>
0.989 (inactive)

$$$$
>  <Compound>
COc1cc(-c2oc3cc(O)ccc3c(=O)c2O)cc(OC)c1OC

>  <Readout Label>
normalized growth

>  <Test Value>
1.01 (inactive)

$$$$
>  <Compound>
O=C(O)c1nccnc1C(=O)O

>  <Readout Label>
normalized growth

>  <Test Value>
0.991 (inactive)

$$$$

In: Please report the recorded normalized growth for COc1ccc2c(=O)ccoc2c1 .
Out: 1.02 (inactive)

In: Please report the recorded normalized growth for CC[C@@H](CO)NC(=O)[C@@H]1C=C2c3cccc4[nH]cc(c34)C[C@H]2N(C)C1 .
Out: 1.01 (inactive)

In: Please report the recorded normalized growth for CC1=NN(c2ccccc2)C(=O)C1 .
Out: 0.97 (inactive)

In: Please report the recorded normalized growth for COC(=O)CSCCc1nc(-c2ccc([N+](=O)[O-])cc2)cs1 .
Out: 0.968 (inactive)

In: Please report the recorded normalized growth for C=CCn1c(COc2c(Br)cc(C)c3c2CCC3)n[nH]c1=S .
Out: 0.846 (active)

In: Please report the recorded normalized growth for CC(C)CC1NC(=O)C(CCCN)NC(=O)C(C(C)C)NC(=O)C2CCCN2C(=O)C(Cc2ccccc2)NC(=O)C(CC(C)C)NC(=O)C(CCCN)NC(=O)C(C(C)C)NC(=O)C2CCCN2C(=O)C(Cc2ccccc2)NC1=O (configuration not stated) (cyclo(FPV[Orn]LFPV[Orn]L); configuration not given here) .
Out: 1 (inactive)
